target: T1, Tim3-ECD-His-Biotin (human, UniProt Q8TDQ0 22-202, biotinylated with BirA Ligase, site not stated); assay: ELISA on human Tim3
T1 construct: also called human Tim3 (ELISA); Biochem Human
Overview of reported Inflexion point across a group of binders:

In the examples that follow, each entry is paired with its recorded Inflexion point.
Tim3_0018MutNQ (antibody, V domains shown) VH: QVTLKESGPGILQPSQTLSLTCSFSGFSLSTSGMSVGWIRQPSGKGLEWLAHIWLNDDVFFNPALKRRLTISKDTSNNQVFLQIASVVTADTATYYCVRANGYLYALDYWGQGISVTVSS VL: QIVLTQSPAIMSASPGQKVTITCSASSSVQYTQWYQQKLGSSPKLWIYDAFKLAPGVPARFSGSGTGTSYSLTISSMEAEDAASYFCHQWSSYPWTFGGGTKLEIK : 10.8 ng/mL
Tim3_0016MutNQ (antibody, V domains shown) VH: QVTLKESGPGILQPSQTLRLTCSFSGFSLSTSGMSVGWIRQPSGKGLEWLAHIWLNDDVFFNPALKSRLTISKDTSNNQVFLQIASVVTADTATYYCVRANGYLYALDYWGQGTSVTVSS VL: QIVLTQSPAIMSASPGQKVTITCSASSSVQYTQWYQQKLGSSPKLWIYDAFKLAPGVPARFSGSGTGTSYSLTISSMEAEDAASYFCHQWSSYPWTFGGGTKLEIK : 5.7 ng/mL
Tim3_0016 variant (0018) (antibody, V domains shown, Mouse monoclonal antibody; also called Tim3_0018; Tim3 0018) VH: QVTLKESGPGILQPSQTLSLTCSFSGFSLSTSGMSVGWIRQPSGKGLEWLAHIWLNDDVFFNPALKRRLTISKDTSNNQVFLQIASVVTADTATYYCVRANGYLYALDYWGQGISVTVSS VL: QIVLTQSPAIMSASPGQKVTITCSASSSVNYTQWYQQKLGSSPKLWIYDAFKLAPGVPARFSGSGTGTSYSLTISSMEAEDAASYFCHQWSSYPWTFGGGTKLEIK : 15.3 ng/mL
Tim3_0016MutNS (antibody, V domains shown) VH: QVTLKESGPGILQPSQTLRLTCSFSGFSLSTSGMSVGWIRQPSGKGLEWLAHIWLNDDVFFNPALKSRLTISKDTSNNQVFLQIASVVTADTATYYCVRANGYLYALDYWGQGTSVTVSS VL: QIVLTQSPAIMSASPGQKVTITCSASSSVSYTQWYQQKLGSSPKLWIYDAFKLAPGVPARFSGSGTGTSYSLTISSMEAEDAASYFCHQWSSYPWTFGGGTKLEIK : 5.5 ng/mL

Switching to the query record.
Give the measured Inflexion point of Tim3_0018MutNS (antibody, V domains shown) VH: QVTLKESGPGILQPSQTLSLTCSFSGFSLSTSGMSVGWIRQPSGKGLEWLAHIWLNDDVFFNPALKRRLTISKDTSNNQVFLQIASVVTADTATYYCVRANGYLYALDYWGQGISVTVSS VL: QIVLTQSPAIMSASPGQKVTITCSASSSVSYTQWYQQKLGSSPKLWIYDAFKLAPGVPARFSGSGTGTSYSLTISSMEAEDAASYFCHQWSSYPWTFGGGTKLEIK .
6.5 ng/mL
